Square brackets hold non-standard residues; d marks the D form. Peptide text beside a SMILES is read from it. * marks the point of attachment. ξ: configuration not given here. X1 = CC1(C)C(/C=C/C=C/C=C/C=C2\N(CCCCCC(=O)*)c3ccc4ccccc4c3C2(C)C)=[N+](CCCCS(=O)(=O)[O-])c2ccc3ccccc3c21; Cha = N[C@@H](CC1CCCCC1)C(=O)O; ξR = N=C(N)NCCCC(N)C(=O)O; ξF = NC(Cc1ccccc1)C(=O)O; ξE = NC(CCC(=O)O)C(=O)O; ξD = NC(CC(=O)O)C(=O)O; AEEA = NCCOCCOCC(=O)O; ξS = NC(CO)C(=O)O
# collection of IC50 values tested on uPAR wt (Homo sapiens)
# Sequence (Q03405 23-305 limits assumed): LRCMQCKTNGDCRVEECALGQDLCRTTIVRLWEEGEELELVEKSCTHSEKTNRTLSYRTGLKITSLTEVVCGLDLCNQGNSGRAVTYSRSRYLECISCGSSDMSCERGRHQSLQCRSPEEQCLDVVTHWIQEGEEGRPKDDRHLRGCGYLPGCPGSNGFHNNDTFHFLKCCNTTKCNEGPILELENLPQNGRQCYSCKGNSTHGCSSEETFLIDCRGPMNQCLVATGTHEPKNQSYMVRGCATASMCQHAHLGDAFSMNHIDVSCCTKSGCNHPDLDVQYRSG
Quick note: give the figure in µM, leave out the unit.

Recorded results for 5 molecules are shown here.
CC(C)C[C@H](NC(=O)[C@H](Cc1ccc(O)cc1)NC(=O)C(CCCNC(=N)N)NC(=O)C(CO)NC(=O)C(Cc1ccccc1)NC(=O)[C@H](CC1CCCCC1)NC(=O)C(CC(=O)O)NC(=O)C(CCC(=O)O)NC(=O)C(CCC(=O)O)NC(=O)CCCCCN1\C(=C/C=C/C=C/C=C/C2=[N+](CCCCS(=O)(=O)[O-])c3ccc4ccccc4c3C2(C)C)C(C)(C)c2c1ccc1ccccc21)C(=O)N[C@@H](Cc1c[nH]c2ccccc12)C(=O)N[C@@H](CO)C(=O)O (stereo partly drawn) [ICG-Glu-Glu-AE105] (X1-[ξE][ξE][ξD][Cha][ξF][ξS][ξR]YLWS-OH)	0.142
CC(C)C[C@H](NC(=O)[C@H](Cc1ccc(O)cc1)NC(=O)[C@@H](CCCNC(=N)N)NC(=O)[C@@H](CO)NC(=O)[C@H](Cc1ccccc1)NC(=O)[C@H](CC1CCCCC1)NC(=O)[C@H](CC(=O)O)NC(=O)COCCOCCNC(=O)COCCOCCNC(=O)[C@H](CCC(=O)O)NC(=O)[C@@H](N)CCC(=O)O)C(=O)N[C@@H](Cc1c[nH]c2ccccc12)C(=O)N[C@@H](CO)C(=O)O [AE344] (H-EE[AEEA][AEEA]D[Cha]F[dS][dR]YLWS-OH; N-terminus assumed)	0.0057
CC(C)C[C@H](NC(=O)[C@H](Cc1ccc(O)cc1)NC(=O)[C@@H](CCCNC(=N)N)NC(=O)[C@@H](CO)NC(=O)[C@H](Cc1ccccc1)NC(=O)[C@H](CC1CCCCC1)NC(=O)[C@@H](N)CC(=O)O)C(=O)N[C@@H](Cc1c[nH]c2ccccc12)C(=O)N[C@@H](CO)C(=O)O [AE105, reference compound]	0.0078
CC(C)C[C@H](NC(=O)[C@H](Cc1ccc(O)cc1)NC(=O)[C@@H](CCCNC(=N)N)NC(=O)[C@@H](CO)NC(=O)[C@H](Cc1ccccc1)NC(=O)[C@H](CC1CCCCC1)NC(=O)[C@H](CC(=O)O)NC(=O)COCCOCCNC(=O)[C@@H](N)CCC(=O)O)C(=O)N[C@@H](Cc1c[nH]c2ccccc12)C(=O)N[C@@H](CO)C(N)=O [AE348] (H-E[AEEA]D[Cha]F[dS][dR]YLWS-NH2; N-terminus assumed)	0.0067
CC(C)C[C@H](NC(=O)[C@H](Cc1ccc(O)cc1)NC(=O)[C@@H](CCCNC(=N)N)NC(=O)[C@@H](CO)NC(=O)[C@H](Cc1ccccc1)NC(=O)[C@H](CC1CCCCC1)NC(=O)[C@H](CC(=O)O)NC(=O)COCCOCCNC(=O)COCCOCCNC(=O)[C@H](CCC(=O)O)NC(=O)[C@@H](N)CCC(=O)O)C(=O)N[C@@H](Cc1c[nH]c2ccccc12)C(=O)N[C@@H](CO)C(N)=O [AE345] (H-EE[AEEA][AEEA]D[Cha]F[dS][dR]YLWS-NH2; N-terminus assumed)	0.0318

We now examine a further molecule.
uPAR wt (Homo sapiens) IC50 of CC(C)C[C@H](NC(=O)[C@H](Cc1ccc(O)cc1)NC(=O)[C@@H](CCCNC(=N)N)NC(=O)[C@@H](CO)NC(=O)[C@H](Cc1ccccc1)NC(=O)[C@H](CC1CCCCC1)NC(=O)[C@H](CC(=O)O)NC(=O)COCCOCCNC(=O)COCCOCCN)C(=O)N[C@@H](Cc1c[nH]c2ccccc12)C(=O)N[C@@H](CO)C(=O)O [AE346] (H-[AEEA][AEEA]D[Cha]F[dS][dR]YLWS-OH; N-terminus assumed) is 0.0161
